Hey, just so you know, these numbers are from patent US4137314A.

system: S. aureus Villaluz
Measured parameter: MIC

1) Cn1nnnc1SCC1=C(C(=O)O)N2C(=O)C(NC(=O)CSSC(Cl)(Cl)Cl)C2SC1 (stereo not shown); 50 µg/mL
2) Cc1nnc(SCC2=C(C(=O)O)N3C(=O)[C@@H](NC(=O)Cn4cnnn4)[C@H]3SC2)s1 [Cefazolin, reference compound]; 25 µg/mL
3) Cn1nnnc1SCC1=C(C(=O)O)N2C(=O)C(NC(=O)CSSC(F)(F)F)C2SC1 (stereo not shown); 6.3 µg/mL
4) CSSCC(=O)NC1C(=O)N2C(C(=O)O)=C(COC(C)=O)CSC12 (stereo not shown); 3.1 µg/mL

###

system: Strep. faecalis HH34358
Entries and their MIC
Measured parameter: MIC (µg/mL)

1. Cn1nnnc1SCC1=C(C(=O)O)N2C(=O)C(NC(=O)CSSC(F)(F)F)C2SC1 (stereo not shown) [C]; 50
2. Cc1nnc(SCC2=C(C(=O)O)N3C(=O)[C@@H](NC(=O)Cn4cnnn4)[C@H]3SC2)s1 [Cefazolin, reference compound]; 6.3
3. Cn1nnnc1SCC1=C(C(=O)O)N2C(=O)C(NC(=O)CSSC(Cl)(Cl)Cl)C2SC1 (stereo not shown) [B]; 50
4. CSSCC(=O)NC1C(=O)N2C(C(=O)O)=C(COC(C)=O)CSC12 (stereo not shown) [D]; 12.5

###

Recorded below: MIC, system Shegella paradysenteriae HH117.
Measured parameter: MIC (µg/mL)

1) CSSCC(=O)NC1C(=O)N2C(C(=O)O)=C(COC(C)=O)CSC12 (stereo not shown) [D]; 1.6
2) Cc1nnc(SCC2=C(C(=O)O)N3C(=O)[C@@H](NC(=O)Cn4cnnn4)[C@H]3SC2)s1 [Cefazolin, reference compound]; 0.8
3) Cn1nnnc1SCC1=C(C(=O)O)N2C(=O)C(NC(=O)CSSC(Cl)(Cl)Cl)C2SC1 (stereo not shown) [B]; 12.5
4) Cn1nnnc1SCC1=C(C(=O)O)N2C(=O)C(NC(=O)CSSC(F)(F)F)C2SC1 (stereo not shown) [C]; 3.1
